Target: T1, glutaredoxin 1 (Grx1), human, His-tagged, purified (human, UniProt P35754 1-106)
T1 sequence (looked up): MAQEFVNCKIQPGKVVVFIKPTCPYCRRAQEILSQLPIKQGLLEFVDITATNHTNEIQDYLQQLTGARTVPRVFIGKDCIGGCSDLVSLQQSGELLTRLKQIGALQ
Assay: BLI
No end group written: not given here.
Measure: Kd (nM)
Numeric answer only, unit nM assumed.

Answer with reported Kd of ETRWPNT (not fully specified (N-terminus); also: biotinylated, position not given here) [biotinylated 2GTP1 peptide (biotin-2GTP1)]
1200
